Values from patent US11753408B2

Test: Microsomal stability (rat)
Assay type: in vitro ADME
Details: rat microsomes
Readings of Microsomal Stability (rat) T1/2 for the listed molecules
Lab book: enter the figure in min, no units written.

Worked examples follow.
[
  {
    "molecule": "O=C(c1ccc(-n2c(=O)ccc3cnc4ccc(-c5ccc(Cl)cc5)nc4c32)cc1)N1CCOCC1 [Compound 151]",
    "value_observed": 3.5
  },
  {
    "molecule": "O=C(c1ccc(-n2c(=O)ccc3cnc4ccc(-c5ccc(Cl)cc5)cc4c32)cc1)N1CCN(CCO)CC1 [Compound 109]",
    "value_observed": 12.3
  }
]

# input for lookup
Recorded result, O=C(c1ccc(-n2c(=O)ccc3cnc4ccc(-c5ccc(F)cc5)cc4c32)cc1)N1CCOCC1 [Compound 107] , Microsomal Stability (rat) T1/2: 6.9

* * *

Target: mTOR (Homo sapiens)
Assay: mTOR activity (no method described)
Format: biochemical
Note to self: use T only for mTOR readings below 20 µM; a reading exactly at 20 µM still gets F.

Please review the entries below; each comes with its answer.
[
  {
    "molecule": "N#Cc1cc(-n2c(=O)ccc3cnc4ccc(-c5ccc(Cl)cc5)cc4c32)ccc1C(=O)NC1CC1 [Compound 312]",
    "label": "F"
  },
  {
    "molecule": "Cc1ccc(C#N)cc1-n1c(=O)[nH]c2cnc3ccc(-c4ccc(Cl)cc4)cc3c21 [Compound 399]",
    "label": "F"
  },
  {
    "molecule": "CCN(CC)CCNC(=O)c1ccc(-n2c(=O)ccc3cnc4ccc(-c5ccc(Cl)cc5)cc4c32)c(C)c1 [Compound 276]",
    "label": "F"
  }
]

Now consider a different molecule.
Is 20 µM strictly greater than the molecule's reported mTOR? molecule: Cn1c(=O)n(-c2cccc(C#N)c2)c2c3cc(-c4ccc(CCN)cc4)ccc3ncc21 [Compound 413] T

* * *

Assay: Microsomal stability (rat)
Type: in vitro ADME
Conditions: rat microsomes
molecules and their reported Microsomal Stability (rat) T1/2
Express it in min; write the number only.

[
  {
    "molecule": "O=C(NC1CC1c1ccccc1)c1ccc(-n2c(=O)ccc3cnc4ccc(-c5ccc(Cl)cc5)cc4c32)cc1 (stereo not shown)",
    "assay_readout": "Microsomal Stability (rat) T1/2",
    "value_observed": 18.8
  },
  {
    "molecule": "O=C(c1ccc(-n2c(=O)ccc3cnc4ccc(-c5ccc(Cl)cc5)cc4c32)cc1)N1CCC(O)CC1",
    "assay_readout": "Microsomal Stability (rat) T1/2",
    "value_observed": 12
  },
  {
    "molecule": "CCNC(=O)c1ccc(-n2c(=O)ccc3cnc4ccc(-c5ccc(Cl)cc5)cc4c32)cc1",
    "assay_readout": "Microsomal Stability (rat) T1/2",
    "value_observed": 6.7
  }
]

For this molecule ( O=C(NCCCN1CCS(=O)(=O)CC1)c1ccc(-n2c(=O)ccc3cnc4ccc(-c5ccc(Cl)cc5)cc4c32)cc1 ), measured Microsomal Stability (rat) T1/2 is 1.7

* * *

Experiment: Solubility at pH 7.4
Format: physicochemical
assay_readout: Sol @ pH 7.4 (ug/mL)
Give the number; ug/mL is assumed, so skip it.

[
  {
    "mol_smiles": "CN(C)Cc1cccc(-c2ccc3ncc4ccc(=O)n(-c5ccc(S(C)(=O)=O)cc5)c4c3c2)c1",
    "value_observed": 21.28
  },
  {
    "mol_smiles": "CN(C)Cc1ccc(-c2ccc3ncc4ccc(=O)n(-c5ccc(S(C)(=O)=O)cc5)c4c3c2)cc1",
    "value_observed": 30.4
  }
]

Turning now to a further record.
Documented Sol @ pH 7.4 (ug/mL) of Nc1ccc(-c2ccc3ncc4ccc(=O)n(-c5ccc6c(c5)CCNC6=O)c4c3c2)cn1 : 6.26
